assay: MCF7 Cancer Cell Toxicity qHTS against the NCATS CANVASS Library (AID 1347369); settings: MCF7 viability, ATP luminescence (CellTiter-Glo), 72 h; series mostly up to 46 µM
Records with an inconclusive call do not appear. Calls of active or inactive are those of the source. Calls follow the shape of the dose curve; as a rule, active = well fitted cell-killing curve with a large enough effect; inconclusive = small, poorly fitted or top-dose-only effect; inactive = no such curve, though single readings can be large or run the other way.
Write down one outcome, taken from T (active), F (inactive)

So what was the verdict on `CC[C@@H]1C[C@@]2(CC)OC(=O)[C@@]3(CC)OC(=O)[C@@H]1[C@@H]23` in this test?
F

So what was the verdict on C=C1C[C@@]23C=CC(=O)[C@@](C)(CCCC(C)C(=O)O)[C@@H]2C[C@@H]1CC3 (some centres not stated) in this test?
F

So what was the verdict on `O=Cc1ccc2n1C[C@@]1(OC2)O[C@H](CO)[C@@H](O)[C@@H]1O` in this test?
F

So what was the verdict on C=C1C[C@@]23C=CC(=O)[C@@](C)(CCC(=O)Nc4c(OC5O[C@H](CO)[C@@H](O)[C@H](O)[C@H]5O)ccc(C(=O)O)c4O)C2C[C@@H]1CC3 (some centres not stated) in this test?
F

So what was the verdict on COC1C(O)C(OC(N)=O)C(Oc2ccc3c(O)c(NC(=O)c4ccc(O)c(CC=C(C)C)c4)c(=O)oc3c2C)OC1(C)C (configuration not stated) in this test?
F

So what was the verdict on `CN1CC[C@]2(c3cccc4c3N[C@@H]3N(C)CC[C@]43[C@@]34CCN(C)[C@@H]3Nc3ccccc34)c3ccccc3N[C@H]12` in this test?
T

So what was the verdict on `O=C1c2c(O)cc(O)cc2O[C@@H](c2ccc(O)cc2)[C@@H]1c1c(O)cc(O)c2c(=O)cc(-c3ccc(O)c(O)c3)oc12` in this test?
F

Where these numbers come from: PubChem BioAssay (NCATS)
